molecules and their reported inhibition
study.system: p38 delta/gamma (Homo sapiens) (UniProt O15264+P53778)
test.details: Inhibition of p38delta/gamma in human PC3 cell lysates at 10 uM using desthiobiotin-tagged ATP probe AX9989 followed by trypsinization by LC/MS analysis
Assay type: protein assay
setup.conditions: PC-3

# molecular.string, inhibition
measured = [
    ("O=C(NC1(Cc2ccc(F)cc2)CC1)c1ccc2nc(N[C@H]3CC[C@H](O)CC3)c3nccn3c2c1", "< 35%"),
    ("C[C@H](NC(=O)c1ccc2nc(N[C@H]3CC[C@H](O)CC3)c3nccn3c2c1)c1ccccc1", "< 35%"),
    ("O=C(NC1(c2ccccc2)CCC1)c1ccc2nc(N[C@H]3CC[C@H](O)CC3)c3nccn3c2c1", "< 35%"),
]

---

compounds and their reported inhibition
study.system: Ephrin type-A receptor 1 (Homo sapiens) (UniProt P21709)
Sequence (whole entry): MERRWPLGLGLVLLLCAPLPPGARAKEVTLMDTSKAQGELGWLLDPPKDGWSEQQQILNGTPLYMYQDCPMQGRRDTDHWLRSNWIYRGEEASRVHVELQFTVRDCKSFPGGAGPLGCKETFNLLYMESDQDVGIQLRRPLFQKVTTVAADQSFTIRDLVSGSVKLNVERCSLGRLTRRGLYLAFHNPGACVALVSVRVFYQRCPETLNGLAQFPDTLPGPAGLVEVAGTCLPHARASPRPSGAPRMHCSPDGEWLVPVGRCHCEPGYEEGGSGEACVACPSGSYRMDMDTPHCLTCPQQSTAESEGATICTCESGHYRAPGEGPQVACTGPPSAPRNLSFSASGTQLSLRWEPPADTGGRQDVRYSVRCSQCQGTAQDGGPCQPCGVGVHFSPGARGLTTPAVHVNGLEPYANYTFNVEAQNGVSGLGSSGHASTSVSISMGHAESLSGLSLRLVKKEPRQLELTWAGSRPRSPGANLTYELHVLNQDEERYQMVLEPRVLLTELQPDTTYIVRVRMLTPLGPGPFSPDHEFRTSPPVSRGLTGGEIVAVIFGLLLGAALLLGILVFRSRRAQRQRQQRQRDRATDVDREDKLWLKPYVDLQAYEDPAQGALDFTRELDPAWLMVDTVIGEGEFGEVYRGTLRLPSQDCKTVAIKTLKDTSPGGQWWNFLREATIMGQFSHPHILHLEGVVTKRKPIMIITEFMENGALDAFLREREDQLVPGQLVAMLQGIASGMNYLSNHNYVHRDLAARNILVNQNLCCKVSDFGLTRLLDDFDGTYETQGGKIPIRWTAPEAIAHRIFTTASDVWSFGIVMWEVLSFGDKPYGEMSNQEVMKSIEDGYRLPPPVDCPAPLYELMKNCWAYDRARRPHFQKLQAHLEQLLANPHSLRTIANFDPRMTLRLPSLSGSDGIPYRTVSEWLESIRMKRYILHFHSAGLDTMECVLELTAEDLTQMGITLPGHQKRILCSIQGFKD
test.details: Inhibition of EphA1 in human PC3 cell lysates at 10 uM using desthiobiotin-tagged ATP probe AX9989 followed by trypsinization by LC/MS analysis
setup.conditions: PC-3

# molecular.string, inhibition
records = [
    ("C[C@@H](NC(=O)c1ccc2nc(N[C@H]3CC[C@H](O)CC3)c3nccn3c2c1)c1ccccc1", "< 35%"),
    ("O=C(O)c1ccc2nc(N[C@H]3CC[C@H](O)CC3)c3nccn3c2c1", "< 35%"),
    ("O=C(NC1(c2ccccc2)CCC1)c1ccc2nc(N[C@H]3CC[C@H](O)CC3)c3nccn3c2c1", "< 35%"),
    ("CC(C)(NC(=O)c1ccc2nc(N[C@H]3CC[C@H](O)CC3)c3nccn3c2c1)c1ccccc1", "< 35%"),
    ("C[C@H](NC(=O)c1ccc2nc(N[C@H]3CC[C@H](O)CC3)c3nccn3c2c1)c1ccccc1", "< 35%"),
    ("CC[C@@H](NC(=O)c1ccc2nc(N[C@H]3CC[C@H](O)CC3)c3nccn3c2c1)c1ccccc1", "< 35%"),
    ("NC(=O)c1ccc2nc(N[C@H]3CC[C@H](O)CC3)c3nccn3c2c1", "< 35%"),
    ("O=C(NC1(Cc2ccc(F)cc2)CC1)c1ccc2nc(N[C@H]3CC[C@H](O)CC3)c3nccn3c2c1", "< 35%"),
    ("O=C(NC1(c2ccc(F)cc2)CC1)c1ccc2nc(N[C@H]3CC[C@H](O)CC3)c3nccn3c2c1", "< 35%"),
    ("O=C(N[C@H](CO)c1ccccc1)c1ccc2nc(N[C@H]3CC[C@H](O)CC3)c3nccn3c2c1", "< 35%"),
    ("O=C(NC1(c2ccccc2)CC1)c1ccc2nc(N[C@H]3CC[C@H](O)CC3)c3nccn3c2c1", "< 35%"),
    ("CCC[C@@H](NC(=O)c1ccc2nc(N[C@H]3CC[C@H](O)CC3)c3nccn3c2c1)c1ccccc1", "< 35%"),
]

---

study.system: Mitogen-activated protein kinase 8 (Homo sapiens, UniProt P45983)
Sequence (P45983 whole entry): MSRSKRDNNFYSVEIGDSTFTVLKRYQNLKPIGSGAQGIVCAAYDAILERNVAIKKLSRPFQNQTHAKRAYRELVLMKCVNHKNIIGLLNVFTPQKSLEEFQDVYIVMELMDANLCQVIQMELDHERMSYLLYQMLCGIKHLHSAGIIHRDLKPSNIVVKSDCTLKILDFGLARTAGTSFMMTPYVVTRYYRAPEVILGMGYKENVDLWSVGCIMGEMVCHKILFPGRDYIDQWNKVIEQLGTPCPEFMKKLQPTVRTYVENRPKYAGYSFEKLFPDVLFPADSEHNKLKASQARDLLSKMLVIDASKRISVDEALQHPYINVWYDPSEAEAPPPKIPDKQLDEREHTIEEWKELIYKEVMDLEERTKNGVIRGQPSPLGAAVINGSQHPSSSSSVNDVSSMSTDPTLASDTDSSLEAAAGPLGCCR
test.details: Inhibition of human recombinant histidine-tagged full-length JNK1 expressed in insect cells activated by GST-tagged MAP2K7 using ATF2 as substrate after 1 hr by luminescence plate reader analysis
compounds and their reported IC50
assay.readout: IC50 (nM)

# molecular.string, assay.readout, value.observed
measured = [
    ("O=C(O)c1ccc2nc(N[C@H]3CC[C@H](O)CC3)c3nccn3c2c1", "IC50", 310),
    ("c1ccc(CNc2nc3ccccc3n3ccnc23)cc1", "IC50", 8400),
    ("O=C(NC1(c2ccccc2)CCC1)c1ccc2nc(N[C@H]3CC[C@H](O)CC3)c3nccn3c2c1", "IC50", 77),
    ("O[C@H]1CC[C@H](NC2=Nc3ccccc3N3CCN=C23)CC1", "IC50", 73000),
    ("Cc1ccc(C2(NC(=O)c3ccc4nc(N[C@H]5CC[C@H](O)CC5)c5nccn5c4c3)CC2)cc1", "IC50", 250),
    ("c1ccc2c(c1)nc(NC1CCCCC1)c1nccn12", "IC50", 1600),
    ("O=C(O)c1ccc2c(c1)nc(N[C@H]1CC[C@H](O)CC1)c1nccn12", "IC50", 1500),
    ("O=C(NC1(c2ccccc2)CCCC1)c1ccc2nc(N[C@H]3CC[C@H](O)CC3)c3nccn3c2c1", "IC50", 180),
    ("CC[C@@H](NC(=O)c1ccc2nc(N[C@H]3CC[C@H](O)CC3)c3nccn3c2c1)c1ccccc1", "IC50", 140),
    ("C[C@H](NC(=O)c1ccc2nc(N[C@H]3CC[C@H](O)CC3)c3nccn3c2c1)c1ccccc1", "IC50", 1980),
]

---

study.system: Phosphatidylinositol 5-phosphate 4-kinase type-2 gamma (Homo sapiens) (UniProt Q8TBX8)
Sequence (Q8TBX8 whole entry): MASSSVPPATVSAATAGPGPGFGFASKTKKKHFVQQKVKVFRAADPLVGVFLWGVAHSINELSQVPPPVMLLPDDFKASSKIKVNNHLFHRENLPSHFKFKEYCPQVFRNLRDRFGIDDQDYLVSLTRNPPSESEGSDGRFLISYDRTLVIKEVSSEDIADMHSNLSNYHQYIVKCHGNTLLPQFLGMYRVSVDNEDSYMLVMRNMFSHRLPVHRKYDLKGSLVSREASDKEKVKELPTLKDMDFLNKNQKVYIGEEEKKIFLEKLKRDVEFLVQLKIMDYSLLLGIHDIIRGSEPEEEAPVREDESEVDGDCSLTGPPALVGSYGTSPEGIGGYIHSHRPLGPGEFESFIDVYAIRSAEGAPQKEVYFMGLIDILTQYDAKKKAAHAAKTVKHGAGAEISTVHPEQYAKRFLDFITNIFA
test.details: Inhibition of PIP4K2C in human PC3 cell lysates at 10 uM using desthiobiotin-tagged ATP probe AX9989 followed by trypsinization by LC/MS analysis
setup.conditions: PC-3
assay.readout: inhibition

# molecular.string, value.observed
measured = [
    ("O=C(NC1(c2ccccc2)CCC1)c1ccc2nc(N[C@H]3CC[C@H](O)CC3)c3nccn3c2c1", "< 35%"),
    ("O=C(NC1(c2ccc(F)cc2)CC1)c1ccc2nc(N[C@H]3CC[C@H](O)CC3)c3nccn3c2c1", "< 35%"),
    ("CCC[C@@H](NC(=O)c1ccc2nc(N[C@H]3CC[C@H](O)CC3)c3nccn3c2c1)c1ccccc1", "< 35%"),
    ("O=C(NC1(Cc2ccc(F)cc2)CC1)c1ccc2nc(N[C@H]3CC[C@H](O)CC3)c3nccn3c2c1", "< 35%"),
    ("O=C(N[C@H](CO)c1ccccc1)c1ccc2nc(N[C@H]3CC[C@H](O)CC3)c3nccn3c2c1", "44.5%"),
    ("O=C(O)c1ccc2nc(N[C@H]3CC[C@H](O)CC3)c3nccn3c2c1", "90.1%"),
    ("O=C(NC1(c2ccccc2)CC1)c1ccc2nc(N[C@H]3CC[C@H](O)CC3)c3nccn3c2c1", "< 35%"),
    ("C[C@H](NC(=O)c1ccc2nc(N[C@H]3CC[C@H](O)CC3)c3nccn3c2c1)c1ccccc1", "< 35%"),
    ("CC[C@@H](NC(=O)c1ccc2nc(N[C@H]3CC[C@H](O)CC3)c3nccn3c2c1)c1ccccc1", "< 35%"),
]

---

study.system: Cyclin-dependent kinase 14 (Homo sapiens)
test.details: Inhibition of PFTAIRE1 in human PC3 cell lysates at 10 uM using desthiobiotin-tagged ATP probe AX9989 followed by trypsinization by LC/MS analysis
setup.conditions: PC-3

# molecular.string, inhibition
records = [
    ("O=C(N[C@H](CO)c1ccccc1)c1ccc2nc(N[C@H]3CC[C@H](O)CC3)c3nccn3c2c1", "< 35%"),
    ("C[C@@H](NC(=O)c1ccc2nc(N[C@H]3CC[C@H](O)CC3)c3nccn3c2c1)c1ccccc1", "< 35%"),
    ("NC(=O)c1ccc2nc(N[C@H]3CC[C@H](O)CC3)c3nccn3c2c1", "< 35%"),
]
